- Tested on: F1*sub RNA substrate (template-directed ligation)
- assayRemarks: fraction ligated after 30 min (ligated reads / total reads); higher = more ligase activity; sequences stand for … in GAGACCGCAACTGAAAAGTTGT…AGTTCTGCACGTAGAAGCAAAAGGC
- studyConditions: 42 °C
assayMetric: fraction ligated

TTCATTGTCGTAAGACCTTTGGATGGGTTGA [3d327]
0.529
TACACTTGTGTAAGACACTTTGGATGGTTGA [3d629]
0.141
TATCACTTGCGTAGACACTTTGGAGGGTTGA [3d1635]
0.105
TATCATTGTCGTAAGACATTTGGAGGGTTGA [3d1265]
0.23
TATCACTTGTCGTGACACTTTGGATGGGTTA [3d1991]
0.703

INPUT: Item ATCCTTGTCGTAAGACACTTTGGAGGGTTGA [3d82] : provide fraction ligated
OUTPUT: 0.1

INPUT: Item TATCACTTGTCGTAAGACATTTGGAGGGTTG [3d2226] : provide fraction ligated
OUTPUT: 0.00325

INPUT: Item TATACTGTCGAAGACACTTTGGATGGGTTGA [3d782] : provide fraction ligated
OUTPUT: 0.71

INPUT: Item TACATTGTCGTAAGCACTTTGGATGGGTTGA [3d555] : provide fraction ligated
OUTPUT: 0.041

INPUT: Item ATCACTTGTCGTAAGACATTTGGATGGGTTG [3d252] : provide fraction ligated
OUTPUT: 0.739

INPUT: Item TTCACTTGTCGTAAGACACTTTGGTGGTTGA [3d498] : provide fraction ligated
OUTPUT: 0.014
